Listing: Δλmax (nm) CYP124, fragment screen of selected compounds
- Assay System: CYP124 (Mycobacterium tuberculosis)
- Sequence (P9WPP3 whole entry, the tested form may be a part): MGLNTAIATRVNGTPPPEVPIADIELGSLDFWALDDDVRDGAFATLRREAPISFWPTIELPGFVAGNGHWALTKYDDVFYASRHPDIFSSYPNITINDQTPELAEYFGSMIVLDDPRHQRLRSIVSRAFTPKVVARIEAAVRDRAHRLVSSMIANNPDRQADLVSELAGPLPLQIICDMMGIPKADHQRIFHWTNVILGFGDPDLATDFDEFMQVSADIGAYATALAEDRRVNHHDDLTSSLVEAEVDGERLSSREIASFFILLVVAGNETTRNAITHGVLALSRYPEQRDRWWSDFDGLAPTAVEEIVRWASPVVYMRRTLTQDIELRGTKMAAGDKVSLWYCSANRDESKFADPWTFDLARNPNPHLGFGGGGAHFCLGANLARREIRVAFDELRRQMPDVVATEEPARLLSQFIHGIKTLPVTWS
- Test Context: fragment 1 mM, P450 4-6 µM; relative to DMSO (419 nm)
Your answer should be a plain number; it is taken to be in nm.

Worked cases, answers included:
- Compound String: "c1ccc2c(c1)CCNC2"
  Measure Unit: "nm"
  Δλmax (nm) CYP124, fragment screen: 2
- Compound String: "N#Cc1ccccn1"
  Measure Unit: "nm"
  Δλmax (nm) CYP124, fragment screen: 0
- Compound String: "Nn1cccc1C(=O)O"
  Measure Unit: "nm"
  Δλmax (nm) CYP124, fragment screen: 0
- Compound String: "Cn1nc(C(=O)O)cc1-c1ccccc1"
  Measure Unit: "nm"
  Δλmax (nm) CYP124, fragment screen: 2
- Compound String: "Nc1cccnc1O"
  Measure Unit: "nm"
  Δλmax (nm) CYP124, fragment screen: 0

// c1ccc(-c2ccn[nH]2)nc1 : Δλmax (nm) CYP124, fragment screen value = 0

// O=C(O)CCc1ccccc1 : Δλmax (nm) CYP124, fragment screen value = 0
